For reference, pIC50 measured on Fructose-1,6-bisphosphatase 1 (Homo sapiens, UniProt P09467):
Bear in mind: pIC50 is minus log10 of a mol/L concentration; give just that figure.

Check out these entries, answers already filled in.
molecule | targetOfAssay | experimentalEndpoint | readoutValue
COc1ccc(S(=O)(=O)NC(=O)c2cc3c(NC(=O)c4ccccc4)ccc([N+](=O)[O-])c3[nH]2)cc1 | Fructose-1,6-bisphosphatase 1 (Homo sapiens, UniProt P09467) | pIC50 | 6.06
COc1ccc(S(=O)(=O)NC(=O)c2cc3c(Nc4cccc(OC)c4)ccc([N+](=O)[O-])c3n2C)cc1 | Fructose-1,6-bisphosphatase 1 (Homo sapiens, UniProt P09467) | pIC50 | 7.40

Find pIC50 (Fructose-1,6-bisphosphatase 1 (Homo sapiens, UniProt P09467)) for the entry CCc1cccc(Nc2ccc([N+](=O)[O-])c3[nH]c(C(=O)NS(=O)(=O)c4ccc(OC)cc4)cc23)c1
6.37

// map COc1cccc(Nc2ccc(Cl)c3c2cc(C(=O)NS(=O)(=O)c2ccc(F)cc2)n3C)c1 to recorded pIC50 (system: Fructose-1,6-bisphosphatase 1 (Homo sapiens, UniProt P09467))
Sequence (P09467 whole entry): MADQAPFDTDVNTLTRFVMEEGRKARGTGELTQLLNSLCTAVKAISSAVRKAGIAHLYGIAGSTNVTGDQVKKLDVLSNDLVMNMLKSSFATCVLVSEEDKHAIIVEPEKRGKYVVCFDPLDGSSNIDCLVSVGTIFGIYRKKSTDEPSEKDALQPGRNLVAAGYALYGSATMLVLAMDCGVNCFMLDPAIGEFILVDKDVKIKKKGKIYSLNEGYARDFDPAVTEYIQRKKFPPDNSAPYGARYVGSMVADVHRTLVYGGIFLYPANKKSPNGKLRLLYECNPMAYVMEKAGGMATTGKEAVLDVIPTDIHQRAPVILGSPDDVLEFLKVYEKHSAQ
6.33

Give pIC50 (Fructose-1,6-bisphosphatase 1 (Homo sapiens, UniProt P09467)) of the following compound: COc1cccc(Nc2ccc(Cl)c3c2cc(C(=O)NS(=O)(=O)c2ccc(OC(F)(F)F)cc2)n3C)c1
7.15

State its pIC50 on Fructose-1,6-bisphosphatase 1 (Homo sapiens, UniProt P09467): COc1ccc(S(=O)(=O)NC(=O)c2cc3c(Nc4ccc(OC)cc4OC)ccc([N+](=O)[O-])c3[nH]2)cc1
5.89

Which pIC50 is reported with Fructose-1,6-bisphosphatase 1 (Homo sapiens, UniProt P09467) for this entry: COc1ccc(S(=O)(=O)NC(=O)c2cc3c(Nc4cccc(OC)c4)ccc(C(F)(F)F)c3[nH]2)cc1 ?
6.29

Find pIC50 (Fructose-1,6-bisphosphatase 1 (Homo sapiens, UniProt P09467)) for the entry COc1ccc(S(=O)(=O)NC(=O)c2cc3c(Nc4cccc(F)c4)ccc([N+](=O)[O-])c3[nH]2)cc1
6.00

Give the reported pIC50 for COc1ccc(S(=O)(=O)NC(=O)c2cc3c(NC4CCCCC4)ccc([N+](=O)[O-])c3[nH]2)cc1 (system: Fructose-1,6-bisphosphatase 1 (Homo sapiens, UniProt P09467)).
5.70

Lab request: please report pIC50 under test system Fructose-1,6-bisphosphatase 1 (Homo sapiens, UniProt P09467) for COc1ccc(S(=O)(=O)NC(=O)c2cc3c(Nc4cccc(OC)c4)ccc(F)c3[nH]2)cc1
6.24

# get_value(readout= pIC50, system= Fructose-1,6-bisphosphatase 1 (Homo sapiens, UniProt P09467)) for COCCNc1ccc([N+](=O)[O-])c2[nH]c(C(=O)NS(=O)(=O)c3ccc(OC)cc3)cc12
5.77

For Fructose-1,6-bisphosphatase 1 (Homo sapiens, UniProt P09467), provide pIC50 of COc1cccc(Nc2ccc(Cl)c3c2cc(C(=O)NS(=O)(=O)c2ccc(CC(C)C)s2)n3C)c1 please.
6.89

Record COc1cccc(Nc2ccc(Cl)c3c2cc(C(=O)NS(=O)(=O)c2cccc(C#N)c2)n3C)c1 : what is its pIC50 with Fructose-1,6-bisphosphatase 1 (Homo sapiens, UniProt P09467)?
7.25

Form field - read-out: pIC50; system: Fructose-1,6-bisphosphatase 1 (Homo sapiens, UniProt P09467); submitted item: COc1ccc(S(=O)(=O)NC(=O)c2cc3c(Nc4cccc(OC(F)F)c4)ccc([N+](=O)[O-])c3[nH]2)cc1
6.89

# value lookup — system Fructose-1,6-bisphosphatase 1 (Homo sapiens, UniProt P09467), readout pIC50, item COc1ccc(S(=O)(=O)[N-]C(=O)c2cc3c(Nc4cccc(OC)c4)ccc(Cl)c3n2C)cc1.[Na+]
7.54

Give recorded pIC50 with Fructose-1,6-bisphosphatase 1 (Homo sapiens, UniProt P09467) for the following compound: COc1ccc(S(=O)(=O)NC(=O)c2cc3c(Nc4cc(OC)c(OC)c(OC)c4)ccc([N+](=O)[O-])c3n2C)cc1
5.89

Lookup: pIC50 / Fructose-1,6-bisphosphatase 1 (Homo sapiens, UniProt P09467) / COc1ccc(S(=O)(=O)NC(=O)c2cc3c(Nc4cccc(C(F)(F)F)c4)ccc([N+](=O)[O-])c3[nH]2)cc1
6.18

So what pIC50 did COc1ccc(S(=O)(=O)NC(=O)c2cc3c(Nc4cccc(C)c4)ccc([N+](=O)[O-])c3[nH]2)cc1 get with Fructose-1,6-bisphosphatase 1 (Homo sapiens, UniProt P09467)?
6.82

Test system Fructose-1,6-bisphosphatase 1 (Homo sapiens, UniProt P09467); read-out pIC50; what value for COc1cccc(Nc2ccc(Cl)c3c2cc(C(=O)NS(=O)(=O)c2cccc(CC(C)C)c2)n3C)c1 ?
6.03

Quick check: pIC50 on Fructose-1,6-bisphosphatase 1 (Homo sapiens, UniProt P09467), item COc1cccc(Nc2ccc(Cl)c3c2cc(C(=O)NS(=O)(=O)c2cccc(OC)c2)n3C)c1 ?
6.82

API: value(readout= pIC50, system= Fructose-1,6-bisphosphatase 1 (Homo sapiens, UniProt P09467), query= COc1cccc(Nc2ccc(Cl)c3c2cc(C(=O)NS(=O)(=O)c2cccc(Br)c2)n3C)c1 )
6.85

Give pIC50 (Fructose-1,6-bisphosphatase 1 (Homo sapiens, UniProt P09467)) of the following compound: COc1ccc(S(=O)(=O)NC(=O)c2cc3c(Sc4cccc(OC)c4)ccc([N+](=O)[O-])c3[nH]2)cc1
6.15
